TESTED TARGET: human serum albumin (Homo sapiens)
Sequence (P02768 25-609): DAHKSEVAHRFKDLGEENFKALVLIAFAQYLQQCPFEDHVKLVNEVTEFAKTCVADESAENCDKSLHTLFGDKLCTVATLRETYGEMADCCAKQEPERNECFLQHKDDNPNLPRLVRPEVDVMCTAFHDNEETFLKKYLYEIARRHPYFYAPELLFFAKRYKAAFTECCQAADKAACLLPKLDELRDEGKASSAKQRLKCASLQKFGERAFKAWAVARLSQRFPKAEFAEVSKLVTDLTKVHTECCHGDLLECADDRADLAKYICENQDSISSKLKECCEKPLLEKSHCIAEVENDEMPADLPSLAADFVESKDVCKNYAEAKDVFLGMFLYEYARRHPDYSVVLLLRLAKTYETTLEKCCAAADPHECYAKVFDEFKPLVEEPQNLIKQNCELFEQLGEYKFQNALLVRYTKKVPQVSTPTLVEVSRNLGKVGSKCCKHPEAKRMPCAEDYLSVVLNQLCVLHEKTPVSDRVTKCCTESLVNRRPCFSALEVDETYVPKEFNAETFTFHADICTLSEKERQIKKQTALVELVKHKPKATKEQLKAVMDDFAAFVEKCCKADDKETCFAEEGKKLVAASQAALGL
EXPERIMENT NOTES: HSA column binding
Type: in vitro ADME
RESULT TYPE: HSA Column binding (%)
Dear colleague, please return just the value in %, with no unit written.

Example molecules with recorded HSA Column binding:
# SMILES REPRESENTATION, RESULT TYPE, RECORDED VALUE
data = [
    ("Cc1oc(-c2ccccc2)nc1C(=O)NCCN1CCCCCC1=O", "HSA Column binding", 92),
    ("CCc1nnc(NC(=O)c2nc(-c3ccc(Cl)cc3)n3c2CCCCC3)s1", "HSA Column binding", 97),
    ("CC(=O)Nc1nc(-c2c(F)cccc2F)cs1", "HSA Column binding", 90),
    ("O=C(Nc1ccccc1C(=O)NC1CC1)c1cccc(N2CCCC2=O)c1", "HSA Column binding", 84),
    ("COc1ccc(-c2nc(C(=O)Nc3cccc(-c4nnc5n4CCCCC5)c3)cs2)cc1OC", "HSA Column binding", 94),
]

Entry CCn1cnnc1C1CCN(C(=O)c2cn3ccc(C)cc3n2)CC1 : reported HSA Column binding = ?
48

Where these numbers come from: paper PMC7171677
